- Tested on: M14
- Assay info: NCI tumour cell line growth inhibition, 48 h
Calls of active or inactive are those of the source. No stated cut-off is given here; in the data, active = GI50 up to about 1.1 µM and inactive = higher.
Returns: one label drawn from active, inactive

Worked examples, 10 compounds total:
CC1(C(=O)O)CCOc2ccccc21 (stereo unspecified) : inactive
COc1cc(OC)cc(-c2cc(=O)c3c(OC)c(OC)c(OC)c(OC)c3o2)c1 : inactive
CC(=O)N1C(=O)c2cc3ccccc3cc21 : inactive
Cc1[nH]c2ccccc2c1CC/C(=N\Nc1ccccc1)c1ccccc1 : inactive
CCOC(=O)C1(Br)C(c2ccccc2)NC(=O)NC1(C)Br (stereo unspecified) : inactive
Cc1nc(Nc2ccccc2)sc1C(=O)NNC(N)=O : inactive
COc1ccc(N[S+]([O-])C2CCCCC2)cc1 (stereo unspecified) : inactive
COC(=O)C1=C(C(=O)OC)SC2(S1)C(C(=O)OC)=C(C(=O)OC)Sc1c2ss/c1=N\c1ccc(Cl)cc1 : inactive
Cc1cc(Cl)ccc1NC(=O)/C(CC(=O)CC(c1ccccc1)c1c(O)c2ccccc2oc1=O)=N\O (stereo unspecified) : inactive
COc1cc2c(c(OC)c1OC)-c1ccc(OC)c(=O)cc1[C@@H](N(C)C=O)CC2 : active

For O=C1C(C(O)(C(F)(F)Cl)C(F)(F)Cl)CCCC1C(O)(C(F)(F)Cl)C(F)(F)Cl (stereo unspecified) , which call appears in the assay record? inactive

For CCC(COC(=O)CC[C@@H](NC(=O)C(C)NC(=O)C(C)OC1C(O)C(CO)OC(OCc2ccccc2)C1NC(C)=O)C(N)=O)NC1c2ccccc2Nc2cccc([N+](=O)[O-])c21 (stereo partly specified) , which call appears in the assay record? inactive

For "N#C/C(=C\c1ccccc1)C(=O)Nc1nnc(-c2ccccc2)o1" , which call appears in the assay record? inactive

For "CN(/N=C/c1cccc2cccnc12)c1ccc([N+](=O)[O-])cc1" , which call appears in the assay record? inactive

For "Cc1ccc(NC(=O)SCCC(=O)O)cc1NC(=O)SCCC(=O)O" , which call appears in the assay record? inactive

For "CN(C)c1nc(N(C)c2ccccc2)[s+]s1" , which call appears in the assay record? inactive

Origin of measurements: ChEMBL document CHEMBL1201862
